- test method notes: qHTS assay to identify small molecule agonists of the TGF-beta/Smad signaling pathway - cell viability counter screen (AID 1346829); note: top concentration of the series differs between compounds; nearly all actives have a fitted effect of over 45% in size
- condition summary: SBE-bla HEK293T viability, CellTiter-Glo luminescence, 5 h; series mostly up to 76.8 µM
Results filed as inconclusive are left out. Activity calls are given as the source filed them. Calls come from the whole dose curve; as a rule, active = well fitted cell-killing curve with a large enough effect in the repeat runs; inconclusive = weak or mixed curves, or effect the other way; inactive = flat fitted curve, though single readings scatter.
property name: activity change, negative = cytotoxicity

| molecule | result value |
| --- | --- |
| CC(=O)Nc1ccc(S(=O)(=O)Cl)cc1 | inactive |
| CC(=O)OC(C)OC(=O)C(C)c1ccc(-c2ccccc2)c(F)c1 (centres undefined) | inactive |
| CCOc1cc(NC(C)=O)ccc1C(=O)OC | inactive |
| C=CC(OCC)OCC | inactive |
| COCCOCCOCCOCCO | inactive |

# next molecule below
Ask: Record request: activity change, negative = cytotoxicity value, item "COc1ccc(OC)c(Cl)c1"
Result: inactive
